Values were extracted from patent US9029386B2.

Target: Flt1(h) (Homo sapiens, UniProt P17948)
Construct: purchased Upstate Biotechnology (Dundee, UK), KinaseProfiler service
Sequence (P17948 27-1338): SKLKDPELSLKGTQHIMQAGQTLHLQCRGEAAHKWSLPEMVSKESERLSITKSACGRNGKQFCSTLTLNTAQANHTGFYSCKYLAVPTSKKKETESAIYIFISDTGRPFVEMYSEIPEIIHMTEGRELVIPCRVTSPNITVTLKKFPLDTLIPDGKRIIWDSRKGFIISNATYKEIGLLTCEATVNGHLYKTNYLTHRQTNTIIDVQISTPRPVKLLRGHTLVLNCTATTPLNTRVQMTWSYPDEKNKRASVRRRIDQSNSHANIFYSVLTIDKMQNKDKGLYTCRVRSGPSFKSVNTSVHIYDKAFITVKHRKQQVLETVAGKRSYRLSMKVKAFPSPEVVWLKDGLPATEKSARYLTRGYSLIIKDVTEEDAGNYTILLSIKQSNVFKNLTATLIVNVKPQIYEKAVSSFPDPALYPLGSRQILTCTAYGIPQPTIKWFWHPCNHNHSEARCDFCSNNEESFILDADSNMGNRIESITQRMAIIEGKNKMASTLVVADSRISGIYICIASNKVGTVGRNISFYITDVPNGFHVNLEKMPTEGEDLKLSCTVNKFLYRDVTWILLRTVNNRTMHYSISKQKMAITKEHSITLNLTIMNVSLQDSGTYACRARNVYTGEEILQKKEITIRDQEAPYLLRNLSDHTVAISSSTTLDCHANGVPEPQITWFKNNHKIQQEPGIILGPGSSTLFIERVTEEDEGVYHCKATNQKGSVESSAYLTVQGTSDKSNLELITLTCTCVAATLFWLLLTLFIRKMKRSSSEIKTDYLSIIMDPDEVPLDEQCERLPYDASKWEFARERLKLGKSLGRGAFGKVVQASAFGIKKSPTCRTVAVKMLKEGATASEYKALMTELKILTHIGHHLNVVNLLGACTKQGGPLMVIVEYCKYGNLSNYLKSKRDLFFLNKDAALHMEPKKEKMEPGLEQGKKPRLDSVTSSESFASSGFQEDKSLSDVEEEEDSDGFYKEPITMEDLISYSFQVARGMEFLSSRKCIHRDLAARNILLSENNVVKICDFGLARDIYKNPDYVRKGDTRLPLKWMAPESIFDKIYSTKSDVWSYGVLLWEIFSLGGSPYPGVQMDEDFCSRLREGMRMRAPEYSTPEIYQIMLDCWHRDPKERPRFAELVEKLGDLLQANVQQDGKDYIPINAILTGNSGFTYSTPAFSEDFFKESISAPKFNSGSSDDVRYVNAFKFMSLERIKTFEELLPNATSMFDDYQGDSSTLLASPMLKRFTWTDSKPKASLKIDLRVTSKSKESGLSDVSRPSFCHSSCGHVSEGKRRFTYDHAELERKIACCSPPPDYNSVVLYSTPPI
Assay: KinaseProfiler assay (Upstate), Flt1
Type: biochemical
Conditions: 0.1 μM
READOUT LABEL: inhibition at 0.1 µM (%)

Cc1cccc(C(=O)Nc2cccc([C@H](C)Nc3cncc(-c4cccc(N5CCOCC5)c4)n3)c2)c1 [Compound 147] ... 95
Cc1cccc(C(=O)Nc2cccc([C@H](C)Nc3cncc(-c4ccc(N5CCN(C)CC5)cc4)n3)c2)c1 [Compound 129] ... 96
Cc1cccc(C(=O)Nc2cccc([C@H](C)Nc3cncc(-n4ccnc4)n3)c2)c1 [Compound 143] ... 90
Cc1cccc(C(=O)Nc2ccc(C)c([C@H](C)Nc3cncc(Cl)n3)c2)c1 [Compound 168] ... 91
Cc1cccc(C(=O)Nc2cccc([C@H](C)Nc3cncc(C(N)=O)n3)c2)c1 [Compound 133] ... 92
Cc1cccc(C(=O)Nc2cccc([C@H](C)Nc3cncc(-c4ccc(S(N)(=O)=O)cc4)n3)c2)c1 [Compound 77] ... 98

I: C[C@H](Nc1cncc(Cl)n1)c1cccc(NC(=O)c2cccc(C(F)(F)F)c2)c1 [Compound 114]
II: C[C@H](Nc1cncc(-c2cccc(N3CCOCC3)c2)n1)c1cccc(NC(=O)c2cccc(C(F)(F)F)c2)c1 [Compound 149]
Between the entries labelled I and II , which has a larger inhibition at 0.1 µM value on record? Your answer should be the label of the entry you select.
I
